Cited source: paper PMC11768370

# TEST_METHOD_NOTES: Etodolac pharmacokinetic profile after a single dose, plasma LC-MS/MS, non-compartmental
# Type: in vivo, human
# MEASUREMENT_SETUP: both sexes, human, oral, 500 mg, Mean of 37 participants, single dose 500 mg, read-out: Cmax
MEASURED_PARAMETER: Cmax

{"MOLECULE": "CCc1cccc2c3c([nH]c12)C(CC)(CC(=O)O)OCC3 (stereo not shown)", "VALUE_OBSERVED": "35500 ng/mL"}

---

# TEST_METHOD_NOTES: Etodolac pharmacokinetic profile after a single dose, plasma LC-MS/MS, non-compartmental
# Format: in vivo, human
# MEASUREMENT_SETUP: both sexes, human, oral, 500 mg, Mean of 37 participants, single dose 500 mg, read-out: AUC0-t
MEASURED_PARAMETER: AUC0-t (µg·h/mL)

{"MOLECULE": "CCc1cccc2c3c([nH]c12)C(CC)(CC(=O)O)OCC3 (stereo not shown)", "MEASURED_PARAMETER": "AUC0-t", "VALUE_OBSERVED": 203}
